tested on: NCI-H322M multicellular tumor spheroids, viability (% test/control); test: Anticancer human tumor NCI-H322M cell line growth inhibition; details: curve of compound
Please provide measured IC50 for the entries that follow.

Prompt: Would you mind telling me what IC50 value was observed for "Cn1ncnc1[C@H]1c2n[nH]c(=O)c3cc(F)cc(c23)N[C@@H]1c1ccc(F)cc1" ?
Response: > 3 µM

Prompt: Would you mind telling me what IC50 value was observed for "Cc1cc(C)c(CNC(=O)c2cc(-c3ccc(CN4CCOCC4)cc3)cc3c2cnn3C2CCCC2)c(=O)[nH]1" ?
Response: > 10 µM

Prompt: Would you mind telling me what IC50 value was observed for "[2H]c1nc(C)nc([2H])c1-c1cc(NC[C@@H](C)c2cccc3c(C(=O)NC)ccnc23)ncn1" ?
Response: > 10 µM

Prompt: Would you mind telling me what IC50 value was observed for "O=C(c1cc(Cc2n[nH]c(=O)c3ccccc23)ccc1F)N1CCN(C(=O)C2CC2)CC1" ?
Response: > 30 µM
